System: NCI-H23 lung
assay-name: NCI-60 one-dose screen, 48 h (100 = growth as untreated, 0 = no growth, -100 = all killed)
details: 10 µM unless noted
Compounds without any hit were thinned out: in the full panel of roughly 83,000, 20% have a hit.
I'd appreciate it if you could supply growth values for the items below.
Express it in %; write the number only.

Query block: Notebook: pull reported growth for NCI-H23 lung, entry CCOC(=O)c1c2c(n3ccc(NC(=O)CCN4CCCCC4)cc13)C(=O)c1ncccc1C2=O
Result block: -55.2

Query block: Notebook: pull reported growth for NCI-H23 lung, entry CC(=O)OC1Oc2cc(C)c(C)cc2-c2oc(=O)c(-c3cc4ccc(N(C)C)cc4oc3=O)cc21 (centres undefined)
Result block: 46.9

Query block: Notebook: pull reported growth for NCI-H23 lung, entry CCCCNC(=O)NS(=O)(=O)c1ccc(N2N=C(c3cc(C)ccc3C)CC2c2cc(OC)c(OC)c(OC)c2)cc1 (centres undefined)
Result block: -26.1

Query block: Notebook: pull reported growth for NCI-H23 lung, entry COc1cc(-c2c3sc(=O)[nH]c3nc3c2c(=O)[nH]n3C(C)C)cc2c1OCO2
Result block: 108

----------
Test system: U251 CNS
assay-name: NCI-60 one-dose screen, 48 h
details: 10 µM unless noted
Compounds without any hit were thinned out: in the full panel of roughly 83,000, 20% have a hit. The source made the active and inactive calls. Rule for the calls: active = growth percent below 10; inactive = the rest.
Write down one outcome, taken from active, inactive

Query block: Recorded test call requested for CCCCCCCCCCCCCCCCCCSC1=CC(=O)C(OC)=C(OC)C1=O
Result block: inactive

Query block: Recorded test call requested for CSc1nc(NCCCNc2ccnc3cc(Cl)ccc23)cc(-c2ccccc2)n1
Result block: inactive

Query block: Recorded test call requested for COc1cc(-c2c3c(nc4c2c(C)nn4-c2ccccc2)-c2ccccc2C(=O)C3=O)cc(OC)c1OC
Result block: inactive

Query block: Recorded test call requested for COc1ccc(-c2cc(-c3ccc(N(C)C)cc3)nc(NC(=O)c3ccncc3)n2)cc1
Result block: inactive

Query block: Recorded test call requested for CC[C@H](CO)Nc1nc(NCc2ccccc2)n2ncc(C(C)C)c2n1
Result block: active

Query block: Recorded test call requested for O=C(CCCN1CCOCC1)Nc1ccc(Cn2nnc3c2C(=O)c2nnn(Cc4ccc(NC(=O)CCCN5CCOCC5)cc4)c2C3=O)cc1
Result block: inactive

Query block: Recorded test call requested for Brc1cccc(-c2nc(-c3ccc4c(c3)OCCO4)co2)c1
Result block: inactive

Query block: Recorded test call requested for Cn1c2ccccc2c2c3[nH]c(=O)[nH]c(=O)c3c3c4ccccc4n(C)c3c21
Result block: inactive

Query block: Recorded test call requested for CCC(c1ccccc1)C(CC)c1ccc(O)c(O)c1 (stereo not given)
Result block: inactive

Query block: Recorded test call requested for COc1cc(C(=O)/C=C/c2c(C)n([O-])c3ccc(C)cc3[n+]2=O)cc(OC)c1OC
Result block: inactive

Query block: Recorded test call requested for c1ccc2sc(SCCCn3ccnc3)nc2c1
Result block: inactive

Query block: Recorded test call requested for CCN(CC)CCC(=O)c1ccc(OC)c2ccccc12
Result block: inactive

Query block: Recorded test call requested for CCOC(=O)c1c2c(n3ccc(NC(=O)CCN4CCOCC4)cc13)C(=O)c1ncccc1C2=O
Result block: inactive

Query block: Recorded test call requested for O=C1/C(=C/c2ccc(Cl)c(Cl)c2)CN(C(=O)CCN2CCC(=NO)CC2)C/C1=C\c1ccc(Cl)c(Cl)c1
Result block: active

Query block: Recorded test call requested for O=C(Nc1nc(-c2ccccc2)cc(-c2ccc(Cl)cc2)n1)c1ccncc1
Result block: inactive

Query block: Recorded test call requested for CC1=C(NCCN2CCCC2)C(=O)c2c(OCc3cccc(Cl)c3)cccc2C1=O
Result block: inactive

Query block: Recorded test call requested for CC1(C)CC(C(=O)OCCCCCCCCCCC[P+](c2ccccc2)(c2ccccc2)c2ccccc2)C(C)(C)N1O (stereo not given)
Result block: inactive

Query block: Recorded test call requested for C/C(=C(/c1ccc(O)cc1)c1ccc(OCCN2CCCC2)cc1)c1ccccc1
Result block: inactive

Query block: Recorded test call requested for Cc1cc(N/N=C/c2nc(-c3ccc(Cl)cc3)oc2C)c2cc(Cl)ccc2n1
Result block: active

Query block: Recorded test call requested for COc1ncc(-c2ccc3ncnc(Nc4cccc(Cl)c4)c3c2)cc1NS(C)(=O)=O
Result block: inactive

# credit: PubChem BioAssay (NCI)
